study target: recombinant human MetAP2 (Homo sapiens, UniProt P50579)
Sequence (P50579 whole entry): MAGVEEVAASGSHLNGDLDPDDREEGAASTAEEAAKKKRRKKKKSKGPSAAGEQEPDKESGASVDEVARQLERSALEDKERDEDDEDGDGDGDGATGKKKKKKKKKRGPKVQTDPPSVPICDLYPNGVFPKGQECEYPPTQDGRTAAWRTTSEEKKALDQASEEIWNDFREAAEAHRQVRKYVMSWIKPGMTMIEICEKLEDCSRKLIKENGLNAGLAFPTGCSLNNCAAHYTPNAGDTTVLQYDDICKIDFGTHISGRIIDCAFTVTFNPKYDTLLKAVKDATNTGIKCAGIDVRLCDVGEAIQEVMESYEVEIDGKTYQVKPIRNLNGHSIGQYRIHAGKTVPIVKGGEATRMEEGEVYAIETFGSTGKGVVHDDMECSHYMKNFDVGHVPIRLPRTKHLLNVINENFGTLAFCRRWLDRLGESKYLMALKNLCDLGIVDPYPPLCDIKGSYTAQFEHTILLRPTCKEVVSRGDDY
protocol text: Inhibition of recombinant human MetAP2 activity (fluorescence, MAS substrate, amino acid oxidase/Amplex red)
assay context: manganese enzyme; 0.75 mM Methionine-Alanine-Serine (MAS) substrate; 30 minutes at 25° C.; pH 7.5; 1% DMSO
Structures can show the parent of a compound that is named as a salt.
measurement label: IC50

Solved entries:
>>> assay_value("CCN1CCC[C@@H]1C(=O)NCc1cc(F)ccc1S(=O)(=O)Nc1ccc2c(c1C(=O)O)OC[C@@H]1C[C@H]21 (mixture of isomers)")
"50 to 500 nM"
>>> assay_value("CCN(CC)C/C=C\\c1cc(F)ccc1S(=O)(=O)Nc1ccc2c3c(cnc2c1C(=O)O)OCC3 [formate salt]")
"< 50 nM"
>>> assay_value("O=C(O)c1c(NS(=O)(=O)c2ccccc2N[C@H]2CN3CCC2CC3)ccc2c1OCC1CC21 (mixture of isomers)")
"< 50 nM"

Then this molecule:
Q: Requested read-out: IC50. Entry: O=C(O)c1c(NS(=O)(=O)c2ccccc2N[C@@H]2CN3CCC2CC3)ccc2c1OCC1CC21 (mixture of isomers)
Result: 50 to 500 nM

---

study target: recombinant human MetAP2 (Homo sapiens, UniProt P50579)
protocol text: Inhibition of recombinant human MetAP2 activity (fluorescence, MAS substrate, amino acid oxidase/Amplex red)
assay context: manganese enzyme; 0.75 mM Methionine-Alanine-Serine (MAS) substrate; 30 minutes at 25° C.; pH 7.5; 1% DMSO
measurement label: IC50

Solved entries:
>>> assay_value("CCN1CC[C@H](NC(=O)Cc2cc(F)ccc2S(=O)(=O)Nc2ccc3c(c2C(=O)O)OC[C@@H]2C[C@H]32)C1 (mixture of isomers)")
"50 to 500 nM"
>>> assay_value("CCN(CC)C/C=C\\c1cc(F)ccc1S(=O)(=O)Nc1ccc2c(c1C(=O)O)OCC1CC21 (stereo not drawn)")
"< 50 nM"
>>> assay_value("O=C(O)c1c(NS(=O)(=O)c2ccc(F)cc2/C=C\\CN2CCCC2)ccc2c1OC[C@@H]1C[C@H]21 (racemic)")
"< 50 nM"

Q: Requested read-out: IC50. Entry: CN(C)CCCNC(=O)c1ccccc1S(=O)(=O)Nc1ccc2c(c1C(=O)O)OC[C@@H]1C[C@H]21 (racemic)
Result: 50 to 500 nM

Q: Requested read-out: IC50. Entry: CCN1CC[C@@H](Nc2ccccc2S(=O)(=O)Nc2ccc3c(c2C(=O)O)OC[C@@H]2C[C@H]32)C1 (mixture of isomers)
Result: 50 to 500 nM

Q: Requested read-out: IC50. Entry: CCNC/C=C\c1cc(F)ccc1S(=O)(=O)Nc1ccc2c(c1C(=O)O)OC[C@@H]1C[C@H]21 (racemic)
Result: < 50 nM
